Below is a list of entries, each paired with its recorded TGI value.
Tested on: DU-145 prostate
protocol_notes: NCI tumour cell line growth inhibition, 48 h

The examples below pair each entry with its known result.
O=C1Cc2c([nH]c3ccc(Br)cc23)-c2cc(O)c(O)cc2N1
> 100 µM
CON(C)c1nc(N(C)OC)nc(N(C)OC)n1
> 10 µM
O=C1CSC2(CC(/C=C/c3cccc([N+](=O)[O-])c3)=NN2c2cccc(S(=O)(=O)O)c2)N1c1nc2ccccc2s1 (stereo unspecified)
40.6 µM
CC1=NC(=Cc2ccccc2O)C(=O)N1n1c(-c2ccccc2)nc2ccccc2c1=O
> 100 µM
N[C@H](C(=O)O)[C@@H]1CC(Br)=NO1
> 100 µM
Oc1c(I)cc(I)c2cccnc12
58 µM
Cc1cc(N=Nc2ccccc2C)ccc1N
27.2 µM
CCOC(=O)c1nc2cc(C(F)(F)F)ccc2nc1Nc1ccc(OC)cc1
> 100 µM
CCN1CCC(O)(/C=C/c2ccccc2C)C(C(=O)/C=C/c2ccccc2C)C1 (stereo unspecified)
4.05 µM
CSc1nc2sc3c(c2c(=O)n1-c1ccc(C(C)C)cc1)CCC(=O)C3
> 100 µM

Exercise: Name the recorded TGI of the compound listed here: `[N-]=[N+]=NI1OC(=O)c2ccccc21`
Solution: > 100 µM

Exercise: Please look at this compound and report its TGI: `O=C(O)CCC(=O)c1ccc2sc3ccccc3c2c1`
Solution: > 100 µM

Exercise: Return TGI (reported value) for this compound: `Cc1cc(C#Cc2ccc(C(C)(C)C)cc2)ccc1-n1c(/C=C/c2ccc(O)cc2O)nc2ccccc2c1=O`
Solution: 13.3 µM

Exercise: Please supply the value of reported TGI for the item CC1OC(OC2C(O)CC(OC3C(O)CC(OC4CCC5(C)C(CCC6C5CC(O)C5(C)C(C7=CC(=O)OC7)CCC65O)C4)OC3C)OC2C)CC(O)C1O (stereo unspecified)
Solution: 0.0903 µM

Exercise: Consider the compound C[N+]12C=CC=C1C(N1CCCC1)c1scc(-c3ccccc3)c12 (stereo unspecified) and give its recorded TGI.
Solution: > 100 µM

###

System: EKVX NSCLC
protocol_notes: NCI tumour cell line growth inhibition, 48 h
In this section we review reported TGI values for a set of compounds.
Dear colleague, please return just the value in µM, with no unit written.

O=C1c2sccc2-c2cccc3cccc1c23 (tested in a mixture with another compound)
0.105

Exercise: Provide only the value of recorded TGI for `CC1(C)CC[C@]2(C)CC[C@]3(C)C(=CC[C@@H]4[C@@]5(C)CCC(=O)C(C)(C)[C@@H]5[C@H](O)C[C@]43C)[C@@H]2C1`
Solution: 32.4

###

System: KM12 colon
protocol_notes: NCI tumour cell line growth inhibition, 48 h; in the data active = GI50 below about 0.43 µM; inactive = the rest
The reply should be one of these categories: Y for active, N for inactive

Oc1c(I)cc(I)c2cccnc12
N

Exercise: Identify the outcome logged in this assay for the compound shown: `COc1cc2nc(-c3cc(F)ccc3O)nc(N[C@@H]3CNC[C@H]3C(C)(C)O)c2cc1OC`
Solution: N

Exercise: Write down the call the test reported for this compound. Item: CCCCCO/N=C\c1c2c(O)c3c(O)c(C)c4c(c3c1O)C(=O)C(C)(O/C=C\C(OC)C(C)C(OC(C)=O)C(C)C(O)C(C)C(O)C(C)/C=C\C=C(\C)C(=O)N2)O4 (centres undefined)
Solution: N

Exercise: Name the outcome recorded for `C/C(=C\c1cnc(C)s1)[C@@H]1C[C@@H]2O[C@@H]2CCC[C@H](C)[C@H](O)[C@@H](C)C(=O)C(C)(C)[C@@H](O)CC(=O)O1` in the assay.
Solution: Y

Exercise: Call for entry CCC1(O)C(=O)OCc2c1cc1n(c2=O)Cc2cc3c(NC(=O)CN)cccc3nc2-1 (centres undefined) :
Solution: N

Exercise: Write down the call the test reported for this compound. Item: `N#CCCN1C/C(=C/c2ccc(Cl)cc2)C(=O)/C(=C/c2ccc(Cl)cc2)C1`
Solution: Y

Exercise: Which outcome did this test record for the compound `Cn1cc(C2=C(c3cccc(OC[C@@H](O)CO)c3)C(=O)NC2=O)c2ccccc21` ?
Solution: N

Exercise: Fill in: this test's call for `C=CCN1CC(=O)N2[C@@H](Cc3ccc(O)cc3F)C(=O)N(Cc3cccc(N4CC(N5CCN(CC)CC5)C4)n3)C[C@@H]2N1C(=O)NCc1ccccc1` is ___
Solution: Y

Exercise: Please state the recorded outcome for this compound: `COc1ccc(N(CC(=O)NCCC[Te]c2ccccc2)C(=O)CNC(=O)OC(C)(C)C)cc1`
Solution: N

This collection of values is drawn from PubChem BioAssay (NCI).
